method_description: yeast display, Sf9 membrane polyspecificity reagent, FACS + sequencing; frameworks hold sequencing errors
reported_metric: polyreactivity (PSR sort gate)

>>> recorded_result("QVQLVESGGGLVQAGGSLRLSCAASGGTFYRYAMGWYRQAPGKERELVAAITDSGGSTYYADSVKGRFTISRDNAKNTVYLQMNSLKPEDTAVYYCAAEDIDYTDVTSGYEYWGQGTQVTVSS")
"high polyreactivity"
>>> recorded_result("QVQLLESGGGLVQAGGSLRLSCAASGSTFTYNAMGWYRQAPGKERELVAAISSSGGSTYYADSVKGRFTISRDNAKNTVYLQMTSLNPEDTAVYYCAKRWLYTSAFRKMDYWGQGTQVTVSS")
"high polyreactivity"
>>> recorded_result("QVQLVESVGGLVQAGGSLRLSCAASGITFSLYAAMGWYRQAPGKERELVAAISWRGGNTYYADSVKGRFTISRDNAKNTVYLQMNSLKPEDTAVYYCAARRTNLPVNFYYWGQGTQVTVSS")
"high polyreactivity"

====

method_description: yeast display, Sf9 membrane polyspecificity reagent, FACS + sequencing; frameworks hold sequencing errors
reported_metric: polyreactivity (PSR sort gate)

For orientation, consider the following solved cases.
>>> recorded_result("PVQLQESGGGLVQAGGSLRLSCAASGNIFDADIMGWYRQAPGKERELVACIADGGSTNYADSVKGRFTISRDNAKNTVYLQMNSLKPEDTAVYYCAAIAYPDIPTCFDYDSDYFIRGQGTQVTVSS")
"low polyreactivity"
>>> recorded_result("QVQLVESGGGLVQAGGSLRLSSAASGRTFSRYAMGWYRQAPGKERELVATISWSGGSTYYADSVKGRFTISRDNAKNTVYLQMNSLNPEDTAVYYCAAKGVYQYRFTKYGYWGQGTQVTVSS")
"high polyreactivity"
>>> recorded_result("QDQLVESRGALVQAGGSLRLSCAASGIIFGRNAMGWYRQAPRKERELVAGITRRGARTYYADSVKGRFTISRDNAKNTVYFQMNILKPEDTAVYYCAAVGPYRWYDYWGQGTQVTVSS")
"high polyreactivity"
>>> recorded_result("PLQLVESGGGLVQAGGSLRLSCAATGFIFAVNAMGWYRQAPGKERELVAAISSSGTTNYADSVKGRFTISRDNAKNTVYLQMNSLKPEDTAVYYCAADYHGSPEYDYWGQGTQVTVSS")
"low polyreactivity"
>>> recorded_result("QVQLVESGGGLVQAGGSHRLSCADSGSIFWYNAMGWYRQAPGKEREFVATITWSGDSTYYADSVKGRFTISRDNAKNTVYLQMNSLKPEDTAVYYCAALLDYSVADLYSHHVSRYYYWGQGTQVTVSS")
"low polyreactivity"

For QDQLVESGGGLVQAGGSLRLSCAASGLTFYSNTMGWYRQAPGKERELVAGISWGGDTTYYADSVKGRFTISRDNAKNTVYLQMNSLKPEDTAVYYCAADRSYWRHRYSYDYWGQGTQVTVSS , write its polyreactivity (PSR sort gate).
low polyreactivity

Could you please provide reported polyreactivity (PSR sort gate) for QVQIVESGGGVVQAGGSLRLSCAASGLIFPAYTMGWYRQAPGKERELVAAISRSGGSTYYADSVKGRFTISRDNAKNTVSLQMNSLNPEDTAVYYCAAQGYFVDRAGRYYRGDYWGQGTQVTVSS ? Thanks!
high polyreactivity

====

method_description: yeast display, Sf9 membrane polyspecificity reagent, FACS + sequencing; frameworks hold sequencing errors
reported_metric: polyreactivity (PSR sort gate)

Example cases with answers are listed next.
>>> recorded_result("QVQLVESGGGLVQAGGSLRLSCAATRSIFFGYAMGWYRQAPGKEREFVAAITASGVRTYYADSVKGRFTISLDNAKNTVYLQMNSLKPEDTAVYYCAARIGTGVLPGRGANSHMDYWGQGTQVTVSS")
"low polyreactivity"
>>> recorded_result("QVQLVESGGGLVQAGGSLRLSCAASGRIFDKYTMGWYRQAPWKERELVPAISKSGSGTFYADSVKGRFTISRDNAKNTVYLQMNSLKPEDTAVYYCARVYTVGSGRSWRLDYWGQGTQVTVSS")
"high polyreactivity"
>>> recorded_result("QVQLVESGGGIVQAGGSLRLSCAASGSTFLTNTMGWYRQAPGTESELVAAITLRGGRTYYADSVKGRFTISRDNAKNTVYLQMNSLKPEDTAVYYCNARNYYYPSDRDYWGQGTQVTGSS")
"low polyreactivity"
>>> recorded_result("QVQLVESGGGLVQAGGSLRLSCAPSGLIFDANAMGWYRQAPGKERELVAAISNGDSTYYADSVKGRFTISRDNAKNTLYLQMNSLKPEDTAVYYCNARIIYRKWLLRSGTFNYWGQGTQVTVSS")
"low polyreactivity"
>>> recorded_result("QVQLVESGGGLVQAGGSLRLSCAASGSIFYSNVMGWYRQATGKERELVAAIRYSGVGTYYADSVKGRFTISRDNAKNTVYLQMNSLKPEDTAVYYSNAVTKVGYLRRRDYWGQGTQVTVSS")
"low polyreactivity"
>>> recorded_result("QVQLVESGGGLVQSGGSLRLSCAASGRTFKSYAMGWYRQAPGKERELVAAITWSGGSTYYADSVKGRFTISRDNAKITVYFQMNSLKPEDTAVYYCAADSVYYYWYGYDYWGQGTQVTVSS")
"low polyreactivity"
>>> recorded_result("QVQLVESGGGIVQAGGSLRLSCAASGSTFGFYAMGWYRQAPGKERELVAAISSAARTYYADSVKGRFTISRDNAMNTVYLQMNSMKPEDTAVYYCSAEAYHWTSYIGYGGVYYWGQGTKVTVSS")
"low polyreactivity"
>>> recorded_result("QVQLVESGGGLVQAGGSLRLSCAASGRTFRLYAMGWYRQAPGKERELVAAITRGGRTNYADSVKGRFTISRDNAKNTVYLQMYSLKPEDTAVYYCARDFVAYGDDYWGQGTQVTVSS")
"low polyreactivity"

Note polyreactivity (PSR sort gate) for the sequence shown: QVQLVESGGGLVQAGGSLRLSCAASGFIFFGEYVMGWYRQAPGKERELVAAITWSGGSTSYADSVKGRFTISRDNAKNTVYLQMNSLKPEDTAVYYCNAVSHFSTAIEFDYWGQGTQVTVSS
low polyreactivity

Hello, please tell me recorded polyreactivity (PSR sort gate) for this one: QVQLVESGGGLVQAGGSLRLSCAASGSIFRLYTMGWYRQAPGKERELVAAISQSGGRTYYADSVKGRFTISRDNAKNTVYLQMNSLNPEDTAVYYCNAVGPYRPYGGQGAPYDYWGQGTQVTVSS
high polyreactivity

Name the recorded polyreactivity (PSR sort gate) of the item QVQLVESGGGIVQAGGSLRLSCAASGRIFGHYAMGWYRPAPGKERELVAAITKNGDSTYYADSVKGRFTISRDNAKNRVYLPMNSLKPEDTAVYYCNAVYDLVCGEGYDSWGQGTQVTVSS in your answer.
low polyreactivity

====

method_description: yeast display, Sf9 membrane polyspecificity reagent, FACS + sequencing; frameworks hold sequencing errors
reported_metric: polyreactivity (PSR sort gate)

>>> recorded_result("QVQLVESGGGLVQAGGSLRLSCAASGRTFAIYAMGWYRQAPGKEREFVAAISWSGCSTYADSVKGRFTISRDNAKNTVYLQMNSLKPEDTAVYYCAKTILYDCDYWGQGTQVTVSS")
"low polyreactivity"
>>> recorded_result("QVQLVESGGGLVQAGGSLRLSCAASGRIFEVYDMGWYRKAPGKERELVAAISESDDNTYYADSVKGRFTISRDNAKNTVYLQMNSLKPEDTAVYYCNADVPGDTGWWGFDYWGQGTQVTVSS")
"low polyreactivity"
>>> recorded_result("QVQLVESGGGLVQAGGSLRLSCAASGSTFYYNAMGWYRQAPGKERELVAGITSSGGSTYYADSVKGRFTISRDNAKNTVYLQMNSLKPEDTAVYYCAASYKRSRRGYYWGQGTQVTVSS")
"high polyreactivity"
>>> recorded_result("QVQLVESGGGLVQAGGSLRLTCAASGGTFGSYAMGWYRPAPGKERELVAVISSGGSTYYADSVKGRFTISRDNAKNTVYLQMNSLKPEDTAVYYCARRTRTTRGKNGYWGQGTKVTVSS")
"high polyreactivity"
>>> recorded_result("QVQLVESGGGLVQAGGSLRLSCAASGRTFKYNTMGWYRQAPGKERELVAVISRSGGRTYYADSVKGRFTISRDNAKNTVYLQMNSLKPEDTAVYYCAARARGNDGYYWGQGTQVTVSS")
"high polyreactivity"
>>> recorded_result("QVQLQEIGGGLVQAGGSLRLSCAATGSIFVSVTMGWYRQAPGKERELVASIGRGSTTNHADSVKGRFTISRDNAKNIVYLLMNSLKPEDTAVYYCAALESYGKYHGYWGQGTQVTVSS")
"low polyreactivity"
>>> recorded_result("RVQLQESGGGLVQAGGSLRLSCAASGTIFIRGDMGWYRQAPGKEREFVATIETGSNTYYADSEKGRFTISRDNAKNAVYLEMNCLKPGDTAVYYCVVDYQLSGRLRYWGQGTQVTLSS")
"low polyreactivity"
>>> recorded_result("QVQLVESGGGLVQAGGSLRLSCAASGRTFPVNAMGWYRQAPGKERELVAAIRRRGGSTYYADSVKGRFTISRDNAKNTVYLQMNSRKPEDTAVYYCAADKSSSFSYSYGYWGHGTQVTVSS")
"low polyreactivity"
>>> recorded_result("QVQLVESGGGLVQAGGSLRLSCAASGIIFSIYVMGWYRQAPGKERELVAAISRSGGSTYYADSVKGRFTISRDNAKNTVYLQMNSLKPEDTAVYYCAKKPTSTYQPDSPRWSDYWGQGTQVTVSS")
"high polyreactivity"
>>> recorded_result("QVQLEETGGGLVQAGGSLRLSCAASGRIFWWYAMGWYRQAPGKERELVAVIDDSGGITYYADSVKGRFTISRDNAKNTVYLQMNSLKPEDTAVYYCARNVNAQKVLAGFDYWGQGTQVTVSS")
"low polyreactivity"

Given the sequence QGQLVESGGGLVQAGGSLRLSCAASGSTYPNNTMGWYREAPGKEWEFVAAITGDGGTTYYADSVKGRFTISRDNAKNTVYLQMNSLKPEDSAVYYCAVPYPAEGYGVDYWGQGTQVTVSS , write its reported polyreactivity (PSR sort gate).
low polyreactivity

For the sequence QVQLVESGGGLVQAGGSLRFSCAASGSTYYYNAMGWDRQAPGKERELVASISWSGGSTRYADSVKGRFTISRDNAKNTVYLQMNSLKPEDTAVYYCAARYILSKYGSGVRYNYWGQGTQVSVSS , report polyreactivity (PSR sort gate).
high polyreactivity
